# SYSTEM_UNDER_TEST: T1, purified interference factor(s), Donor C
# T1 construct: also called interference in serum from Donor C
# ASSAY_NAME: SPR, interference factor immobilized
MEASURED_QUANTITY: % of binding of reference (=100%)
Record the value in %, omitting the unit from your answer.

Please give measured % of binding of reference (=100%) of the following entry: SEQ ID NO: 76 (VHH, Ex. 8) VHH: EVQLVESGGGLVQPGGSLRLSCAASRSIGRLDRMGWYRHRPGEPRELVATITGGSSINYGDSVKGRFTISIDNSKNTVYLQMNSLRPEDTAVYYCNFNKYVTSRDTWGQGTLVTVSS
20

Please report % of binding of reference (=100%) for the following binder: SEQ ID NO: 38 (VHH, Ex. 8) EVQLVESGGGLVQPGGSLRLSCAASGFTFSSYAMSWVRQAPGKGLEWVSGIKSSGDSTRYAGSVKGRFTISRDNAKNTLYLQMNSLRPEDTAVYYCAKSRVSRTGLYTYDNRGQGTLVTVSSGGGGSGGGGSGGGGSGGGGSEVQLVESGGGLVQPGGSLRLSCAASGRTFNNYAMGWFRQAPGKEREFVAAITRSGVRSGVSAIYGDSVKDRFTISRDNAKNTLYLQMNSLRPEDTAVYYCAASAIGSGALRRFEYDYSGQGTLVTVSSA
7

Write down % of binding of reference (=100%) measured for item SEQ ID NO: 69 (VHH, Ex. 8) VHH: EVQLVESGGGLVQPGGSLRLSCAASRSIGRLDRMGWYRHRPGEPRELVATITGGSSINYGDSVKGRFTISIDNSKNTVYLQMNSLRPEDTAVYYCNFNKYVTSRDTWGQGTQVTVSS
84

Answer with the recorded % of binding of reference (=100%) for the binder listed here: SEQ ID NO: 70 (VHH, Ex. 8) VHH: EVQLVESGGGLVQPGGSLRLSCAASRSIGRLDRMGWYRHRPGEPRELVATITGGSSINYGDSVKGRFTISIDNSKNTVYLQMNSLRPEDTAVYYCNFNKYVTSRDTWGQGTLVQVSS
98

Supply reported % of binding of reference (=100%) belonging to this binder: SEQ ID NO: 89 (VHH, Ex. 8) VHH: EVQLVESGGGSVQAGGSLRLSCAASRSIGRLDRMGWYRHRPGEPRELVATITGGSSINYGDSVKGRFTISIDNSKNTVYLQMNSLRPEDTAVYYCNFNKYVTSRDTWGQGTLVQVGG
17

Specify % of binding of reference (=100%) for SEQ ID NO: 82 (VHH, Ex. 8) VHH: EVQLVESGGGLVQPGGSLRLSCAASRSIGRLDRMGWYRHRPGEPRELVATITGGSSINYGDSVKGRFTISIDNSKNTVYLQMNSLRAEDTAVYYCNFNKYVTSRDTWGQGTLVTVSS and stop.
100

Give a short answer stating reported % of binding of reference (=100%) for SEQ ID NO: 87 (VHH, Ex. 8) VHH: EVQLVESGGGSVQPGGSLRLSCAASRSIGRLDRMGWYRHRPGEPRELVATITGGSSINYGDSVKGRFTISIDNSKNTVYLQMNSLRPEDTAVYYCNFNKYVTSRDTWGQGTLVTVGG .
39

// provenance: patent US20200216532A1
